Where do these numbers come from? They come from patent US12024507B2.

// reported CLint scaled at 1 μM per item
PROTOCOL_TEXT: Metabolic stability in rat hepatocytes
Assay type: in vitro ADME
MEASUREMENT_CONTEXT: cryopreserved hepatocytes, 1×10^6 cells/mL, intrinsic clearance
Return type: number; implicit unit mL/min/kg.

COMPOUND	CLint scaled at 1 μM, mL/min/kg
CC1(c2ccc(C#N)cc2F)Oc2cccc(C3CCN(Cc4nc5ccc(-c6nnn[nH]6)cc5n4C[C@@H]4CCO4)CC3)c2O1 (stereo partly shown) [Compound 16]	6.93
N#Cc1ccc(COc2cccc(C3CCN(Cc4nc5ccc(-c6nnn[nH]6)cc5n4Cc4cncs4)CC3)n2)c(F)c1 [Compound 11]	68.3
N#Cc1ccc(COc2cccc(C3CCN(Cc4nc5ccc(-c6nnn[nH]6)cc5n4C[C@@H]4CCO4)CC3)n2)c(F)c1 [Compound 8]	46.5

From here, focus on the item given below.
Read off the recorded CLint scaled at 1 μM for N#Cc1ccc(COc2cccc(C3CCN(Cc4nc5ccc(-c6nc(=O)[nH]o6)cc5n4Cc4cncs4)CC3)n2)c(F)c1 [Compound 13]
111
